Target: full-length beta-Catenin (Uniprot ID P35222) (Homo sapiens)
Construct: 10 nM full-length beta-Catenin (Uniprot ID P35222)
Experiment: Fluorescence polarization IC50 (beta-catenin / 5FAM-TCF4 10-53 competition)
Type: binding
Settings: fluorescence polarization; read-out: beta-Catenin FP IC50
outcome measure: pIC50
Conceptually, pIC50 converts a concentration in mol/L into minus its log10.

Q: Report pIC50 for CC(=O)N1CCC[C@]12CC=CCCCC1(CCCC=CCCCOC(=O)N3CC[C@@](C(=O)N[C@@H](Cc4ccsc4)C(=O)N[C@@H](Cc4csc5ccccc45)C(=O)N[C@@H](CCC(N)=O)C(N)=O)(C3)NC(=O)[C@H](CC(N)=O)NC(=O)[C@H](Cc3ccccc3)NC(=O)[C@H](C)NC(=O)[C@H](C)NC(=O)[C@H](CN(CC(=O)O)Cc3c(F)c(F)c(F)c(F)c3F)NC(=O)[C@H](CC(=O)O)NC1=O)NC(=O)[C@H](CC(C)(C)C)NC(=O)[C@H](CC(=O)O)NC2=O (stereo partly shown) [I-1638] tested on full-length beta-Catenin (Uniprot ID P35222) (Homo sapiens).
A: 8.05

* * *

Target: full-length beta-Catenin (Uniprot ID P35222) (Homo sapiens, UniProt P35222)
Construct: 10 nM full-length beta-Catenin (Uniprot ID P35222)
Sequence (P35222 whole entry): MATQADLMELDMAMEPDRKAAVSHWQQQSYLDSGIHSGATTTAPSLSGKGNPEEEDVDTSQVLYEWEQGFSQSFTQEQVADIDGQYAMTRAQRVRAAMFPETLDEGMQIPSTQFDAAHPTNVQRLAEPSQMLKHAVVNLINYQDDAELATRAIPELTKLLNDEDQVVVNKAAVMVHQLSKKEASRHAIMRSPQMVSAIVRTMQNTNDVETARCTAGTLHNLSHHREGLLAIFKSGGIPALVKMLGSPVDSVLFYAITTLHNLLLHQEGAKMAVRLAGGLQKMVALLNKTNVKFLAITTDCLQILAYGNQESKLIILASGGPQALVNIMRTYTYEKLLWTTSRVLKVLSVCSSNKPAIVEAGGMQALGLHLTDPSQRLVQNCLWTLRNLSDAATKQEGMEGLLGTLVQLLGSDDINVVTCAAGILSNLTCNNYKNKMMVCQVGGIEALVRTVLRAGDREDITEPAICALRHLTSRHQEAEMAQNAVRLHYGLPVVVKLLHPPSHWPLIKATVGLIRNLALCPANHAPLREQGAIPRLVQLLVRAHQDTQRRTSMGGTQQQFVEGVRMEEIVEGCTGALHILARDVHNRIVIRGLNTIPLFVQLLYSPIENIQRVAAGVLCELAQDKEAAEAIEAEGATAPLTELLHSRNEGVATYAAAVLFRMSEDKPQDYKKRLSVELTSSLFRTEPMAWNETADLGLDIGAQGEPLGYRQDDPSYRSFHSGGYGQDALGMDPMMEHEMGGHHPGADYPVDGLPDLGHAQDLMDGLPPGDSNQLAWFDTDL
Test: Fluorescence polarization IC50 (beta-catenin / 5FAM-TCF4 10-53 competition)
Format: binding
Details: fluorescence polarization; read-out: beta-Catenin FP IC50
Item-by-item account of IC50

A selection of reference data follows.
Q: Request the reported IC50 associated with CCCC[C@@H]1NC(=O)[C@H](CCC(=O)O)NC(=O)[C@H](CC(=O)O)NC(=O)C2(CCCC=CCCCCCC[C@@](C)(C(=O)N[C@@H](Cc3ccccc3)C(=O)N[C@@H](Cc3csc4ccccc34)C(=O)N[C@@H](CCC(N)=O)C(N)=O)NC(=O)[C@H](CCC(N)=O)NC(=O)[C@H](Cc3ccccc3)NC(=O)[C@H](C)NC1=O)CCCC=CC[C@]1(CCCN1C(C)=O)C(=O)N[C@@H](CC(=O)O)C(=O)N[C@@H]([C@@H](C)CC)C(=O)N2 (some centres unmarked) [I-656]
A: 73 nM

Q: Request the reported IC50 associated with CC(=O)N1CCC[C@]12CC=CCCCC1(CCCC=CCCCCCC[C@@](C)(C(=O)N[C@@H](Cc3ccccc3Cl)C(=O)N[C@@H](Cc3csc4ccccc34)C(=O)N[C@@H](Cc3c[nH]cn3)C(N)=O)NC(=O)[C@H](CC(C)C)NC(=O)[C@H](Cc3ccccc3)NC(=O)[C@H](C)NC(=O)[C@H](C)NC(=O)[C@H](CC(=O)O)NC(=O)[C@H](CC(=O)O)NC1=O)NC(=O)[C@H](CC(C)(C)C)NC(=O)[C@H](CC(=O)O)NC2=O (some centres unmarked) [I-1194]
A: 66.5 nM

Continuing:
Q: Request the reported IC50 associated with CC(=O)N1CCC[C@]12CC=CCCCC1(CCCC=CCCCOC(=O)N3CC[C@@](C(=O)N[C@@H](Cc4ccccc4C(F)(F)F)C(=O)N[C@H](C(=O)N[C@@H](CCC(N)=O)C(N)=O)[C@H](C)c4ccc5ccccc5c4)(C3)NC(=O)[C@H](CC(C)C)NC(=O)[C@H](Cc3ccccc3)NC(=O)[C@H](C)NC(=O)[C@H](C)NC(=O)[C@H](Cc3cccc(C(=O)O)c3)NC(=O)[C@H](CC(=O)O)NC1=O)NC(=O)[C@H](CC(C)(C)C)NC(=O)[C@H](CC(=O)O)NC2=O (some centres unmarked) [I-2462]
A: 40 nM

Q: Request the reported IC50 associated with CC(=O)N1CCC[C@]12CC=CCCCC1(CCCC=CCCCOC(=O)N3CC[C@@](C(=O)N[C@@H](Cc4cccc(Cl)c4)C(=O)N[C@@H](Cc4csc5ccccc45)C(=O)N[C@@H](CCO)C(N)=O)(C3)NC(=O)[C@H](CC(N)=O)NC(=O)[C@H](Cc3ccccc3)NC(=O)[C@H](C)NC(=O)[C@H](CCCCNC(C)C)NC(=O)[C@H](CCC(N)=O)NC(=O)[C@H](CC(=O)O)NC1=O)NC(=O)[C@H](CC1CCCCC1)NC(=O)[C@H](CC(N)=O)NC2=O (some centres unmarked) [I-1928]
A: 887 nM

Q: Request the reported IC50 associated with CC(=O)N1CCC[C@]12CC=CCCCC1(CCCC=CCCCOC(=O)N3CC[C@@](C(=O)N[C@@H](Cc4ccccc4C(F)(F)F)C(=O)N[C@@H](Cc4csc5ccccc45)C(=O)N[C@@H](CCC(N)=O)C(=O)N[C@@H](CC(C)C)C(=O)N[C@H](CC(C)C)C(N)=O)(C3)NC(=O)[C@H](CC(C)C)NC(=O)[C@H](Cc3ccccc3)NC(=O)[C@H](C)NC(=O)[C@H](C)NC(=O)[C@H](Cc3cccc(C(=O)O)c3)NC(=O)[C@H](CC(=O)O)NC1=O)NC(=O)[C@H](CC(C)(C)C)NC(=O)[C@H](CC(=O)O)NC2=O (some centres unmarked) [I-2396]
A: 187 nM

The values you see were collected from patent US20240116985A1.
